Kindly state pIC50 for each of the entries shown.
# TARGET OR TEST SYSTEM: KRAS-G12D and SOS1 (Homo sapiens, UniProt P01116, G12D)
# Sequence (P01116 1-188 isoform P01116-2 G12D): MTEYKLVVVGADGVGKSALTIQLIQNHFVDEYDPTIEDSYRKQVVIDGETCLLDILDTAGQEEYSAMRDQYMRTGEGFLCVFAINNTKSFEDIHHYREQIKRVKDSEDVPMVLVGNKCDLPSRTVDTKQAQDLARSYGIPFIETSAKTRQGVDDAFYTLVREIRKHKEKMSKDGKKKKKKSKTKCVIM
# TEST: Inhibition of KRAS-G12D/SOS1 binding (Cisbio binding kit, 665/615 ratio), Effect Embodiment A
# RECORDED CONDITIONS: read-out: GTP-KRAS-G12D:SOS1 IC50
Where a name gives a salt, the structure may show the parent alone.
Remember, pIC50 is on a log scale: it is -log10 of the molar concentration.

Param item = CN1CCC[C@H]1COc1nc(N2C[C@H]3CC[C@@H](C2)N3)c2ccc(-c3cc(O)cc4ccccc34)c(F)c2n1 [Compound 144] ; retrieve measured pIC50. 7.84

Given CCc1cccc2cc(O)cc(-c3c(F)cc4c(N5CC6CCC(C5)N6)nc(OC[C@H](C)CN5C6CCC5COC6)nc4c3F)c12 (single isomer, unassigned) [Compound 284a, dihydrochloride] , state its recorded pIC50. 7.76

May I ask what pIC50 has been recorded for CC(C)N1CC2CCC(C1)N2CCCOc1nc(N2CC3CCC(C2)N3)c2cc(Cl)c(-c3cc(O)cc4ccccc34)c(F)c2n1 (single isomer, unassigned) [Compound 244] ? 7.31

Returns the measured pIC50 for the input compound. Input: N#Cc1cccc2cc(O)cc(-c3c(F)cc4c(N5CC6CCC(C5)N6)nc(OCCCN5C6CCC5COC6)nc4c3F)c12 (single isomer, unassigned) [Compound 278b] 5.61

Dear colleague, I am looking for the recorded pIC50 of the following compound: CN(C)C1CN(c2nc(N3CC4CCC(C3)N4C)c3cc(Cl)c(-c4cc(O)cc5ccccc45)c(F)c3n2)C1 (single isomer, unassigned) [Compound 86] 5.45

Please look up its pIC50: C[C@@H]1CN(CCCOc2nc(N3CC4CCC(C3)N4)c3cc(Cl)c(-c4cc(O)cc5ccccc45)c(F)c3n2)CCO1 (single isomer, unassigned) [Compound 241] 7.30

Looking for the measured pIC50 of CCN(C)CCCOc1nc(N2CC3CCC(C2)N3)c2cc(Cl)c(-c3cc(O)cc4ccccc34)c(F)c2n1 (single isomer, unassigned) [Compound 49a] , can you help? 7.44

Which pIC50 is listed for CO[C@@H]1C[C@@H](COc2nc(N3CC4CCC(C3)N4)c3cc(Cl)c(-c4cc(O)cc5ccccc45)c(F)c3n2)N(C)C1 (single isomer, unassigned) [Compound 166, dihydrochloride] ? 7.60

Would you kindly share the measured pIC50 for C[C@H]1COC[C@H](C)N1CCCOc1nc(N2CC3CCC(C2)N3)c2cc(Cl)c(-c3cc(O)cc4ccccc34)c(F)c2n1 (single isomer, unassigned) [Compound 180] ? 7.06

Any idea what pIC50 was measured for CCC(COc1nc(N2CC3CCC(C2)N3)c2cc(Cl)c(-c3cc(O)cc4ccccc34)c(F)c2n1)CN1C2CCC1COC2 (single isomer, unassigned) [Compound 201b] ? 7.26

Request the reported pIC50 associated with CN(C)C1CN(c2nc(N3CC4CNCC4C3)c3cc(Cl)c(-c4cc(O)cc5ccccc45)c(F)c3n2)C1 (single isomer, unassigned) [Compound 14c] 5.02

Would you mind telling me what pIC50 value was observed for Oc1cc(-c2c(Cl)cc3c(N4CC5CCC(C4)N5)nc(OCCCN4CCCC4)nc3c2F)c2ccccc2c1 (single isomer, unassigned) [Compound 63a] ? 7.75
